The origin of these recorded values is PubChem BioAssay (NCI).

- System: OVCAR-8 ovarian
- method: NCI tumour cell line growth inhibition, 48 h; in the data active = GI50 below about 0.43 µM; inactive = the rest
Classes to choose from: active, inactive

For orientation, consider the following solved cases.
[
  {
    "molecule": "CCCCCCCCCCCCCCCCCC1=NC(C)(C)CN1CC(C)O (stereo not drawn)",
    "category": "inactive"
  },
  {
    "molecule": "Cc1ncc(C(=O)Nc2ccc(CN3CCN(C)CC3)c(C(F)(F)F)c2)cc1C#Cc1cnc2cccnn12",
    "category": "active"
  },
  {
    "molecule": "O=[N+]([O-])c1cc(Cl)c2[nH]c3c(Cl)cc([N+](=O)[O-])cc3c2c1",
    "category": "active"
  },
  {
    "molecule": "CN(CCCCCl)P(=O)(OCCS(=O)(=O)CC(NC(=O)CCC(N)C(=O)O)C(=O)NC(C(=O)O)c1ccccc1)OCC1OC(n2ccc(N)nc2=O)C(F)(F)C1O (stereo not drawn)",
    "category": "active"
  }
]

[Q] For Nc1nonc1-c1nc2cnccc2n1C1CC1 , what call appears in the results of this test?
[A] inactive

[Q] What was the test verdict on COc1ccccc1C#Cc1ccccc1C#CCCCCO ?
[A] inactive

[Q] Outcome logged for CS(=O)(=O)CCNCc1cc(-c2cc3c(Nc4ccc(OCc5cccc(F)c5)c(Cl)c4)ncnc3s2)cs1 in this assay:
[A] inactive

[Q] Outcome logged for CCCCCCCCOC(=O)CC[C@@H](C)[C@H]1CC[C@H]2[C@@H]3[C@H](OC(=O)CCN)C[C@@H]4C[C@H](OC(=O)CCN)CC[C@]4(C)[C@H]3C[C@H](OC(=O)CCN)[C@]12C in this assay:
[A] inactive

---

I'd be grateful if you could share measured GI50 for these entries.
- System: HS 578T breast
- method: NCI tumour cell line growth inhibition, 48 h

These solved cases illustrate the format of a correct answer.
[
  {
    "smiles notation": "O=C(Nc1cc(C(F)(F)F)ccc1Cl)c1ccc(NC2=C(Cl)C(=O)N(Cc3ccccc3)C2=O)cc1",
    "GI50": "31.9 µM"
  },
  {
    "smiles notation": "O=c1c2cc(F)ccc2sc2c(N3CCNCC3)nc3ccc(F)cc3c12",
    "GI50": "1.7 µM"
  },
  {
    "smiles notation": "FC(F)(c1ccc2ncccc2c1)c1nnc2ccc(-c3ccncc3)nn12",
    "GI50": "22.3 µM"
  }
]

[Q] Given the molecule Nc1ccccc1C#C/C=C\C#Cc1ccc(OCCCNC(=O)c2cc3ccccc3[nH]2)cc1 , what is its reported GI50?
[A] 15.1 µM

---

- Test system: NCI-H460 lung
- method: NCI tumour cell line growth inhibition, 48 h
quantity measured: TGI

Below: 2 compounds and their reported TGI.
[
  {
    "compound": "FC(F)(c1ccc2ncccc2c1)c1nnc2ccc(-c3ccncc3)nn12",
    "quantity measured": "TGI",
    "result": "> 100 µM"
  },
  {
    "compound": "CCOc1ccc2[nH]c3c(C)c4ccncc4c(C)c3c2c1",
    "quantity measured": "TGI",
    "result": "1.68 µM"
  }
]

Report TGI for every entry below.
1. CN(CCCCCl)P(=O)(OCCS(=O)(=O)CC(NC(=O)CCC(N)C(=O)O)C(=O)NC(C(=O)O)c1ccccc1)OCC1OC(n2ccc(N)nc2=O)C(F)(F)C1O (stereo unspecified)
2. c1ccc(C(NCC2CCO2)(c2ccccc2)c2ccccc2)cc1 (stereo unspecified)
3. CCCCCCCCCCCCCCCCNC(=O)C(=O)/C=C(\O)c1ccc(C)cc1
4. CC(=O)Nc1ccc(C(=O)NN2C(=O)C(Cl)/C2=C/c2ccco2)cc1 (stereo unspecified)
5. C#Cc1cccc(N2C(=O)c3c(c(-c4ccccc4)c(-c4ccc(Cc5ccc(-c6c(-c7ccccc7)c7c(c(-c8ccccc8)c6-c6ccccc6)C(=O)N(c6cccc(C#C)c6)C7=O)cc5)cc4)c(-c4ccccc4)c3-c3ccccc3)C2=O)c1

[A]
> 100 µM
33.9 µM
> 10 µM
> 100 µM
> 100 µM

Parameters: items (list). Returns: TGI for each item.
1. NCCSSCCN
2. S=c1snc2n1CCN2
3. CCNC(=O)COc1ccc(Br)cc1Br
4. COc1ccc(NC(=O)CC2SC(=Nc3ccccc3C)NC2=O)c([N+](=O)[O-])c1 (stereo unspecified)
5. Brc1ccc(C[P+]2(c3ccccc3)CCCCC2)cc1
6. CCOC(=O)c1c(N=P(c2ccccc2)(c2ccccc2)c2ccccc2)nnc(-c2ccccc2)c1-c1ccccc1
7. O=C(/C=C/c1ccccc1)CSc1ncn[nH]1
8. CC1CCC2(NC1)OC1CC3C4CC=C5CC(O)CCC5(C)C4CCC3(C)C1C2C (stereo unspecified)

[A]
1. > 100 µM
2. > 100 µM
3. > 100 µM
4. > 100 µM
5. > 100 µM
6. > 100 µM
7. > 100 µM
8. > 100 µM

// each listed compound needs a value for TGI
1. CCOC(=O)c1[nH]c(Br)c(-c2ccc(OC)c(OC)c2)c1Br
2. COC(=O)C1Cc2cc3c(cc2C1=O)CCCC3 (stereo unspecified)
3. CC(C)(C)OC(=O)NC1CC2(C=C(Br)C(=O)C(Br)=C2)OC1=O (stereo unspecified)
4. O=C(/C=C/c1ccccc1)C(Br)C(Br)c1ccccc1 (stereo unspecified)
5. O=C1/C(=C/c2cccc(Br)c2)COc2ccc(O)cc21
6. O=C(Nc1cc(C(F)(F)F)ccc1Cl)c1ccc(NC2=C(Cl)C(=O)N(Cc3ccccc3)C2=O)cc1
7. N#Cc1ccccc1C(Cl)(Cl)c1cnccn1
8. COc1cc2c(cc1OC)C(=O)N(c1ccc(O)cc1)C2=O

[A]
1: > 100 µM; 2: > 100 µM; 3: 38.5 µM; 4: 5.97 µM; 5: 13.2 µM; 6: > 100 µM; 7: > 100 µM; 8: > 100 µM

Record TGI per entry; entries follow.
1. COc1ccc(-n2c(N)c(C#N)[nH]c2=O)cc1
2. CC(C)CCC[C@@H](C)[C@H]1CC[C@H]2[C@@H]3CC[C@H]4C[C@@H](CCC=C(c5cc(Cl)c(O)c(C(=O)O)c5)c5cc(Cl)c(O)c(C(=O)O)c5)CC[C@]4(C)[C@H]3CC[C@]12C
3. CCC(=O)c1c(NOC2OCC(OC(C)=O)C(OC(C)=O)C2OC(C)=O)nc(OC)n(C)c1=O (stereo unspecified)
4. O=[N+]([O-])c1ccc2c(c1)N([O-])C1(CCCCC1)[N+]2=O
5. C[C@@H]1C[C@H](C)CN(S(=O)(=O)c2ccc3c(NO)c4ccc(S(=O)(=O)N5C[C@H](C)C[C@H](C)C5)cc4c(N=O)c3c2)C1
6. O=C(O)CCS/C(=C\C(SCCC(=O)O)c1ccc(Cl)cc1)c1ccc(Cl)cc1 (stereo unspecified)
7. CC1/C=C/[C@@]2(C)CCC(C(C)(C)O)C2C(O)C[C@](C)(O)/C=C/C1 (stereo partly specified)

[A]
["> 10 µM", "> 100 µM", "> 100 µM", "37 µM", "0.222 µM", "> 100 µM", "> 100 µM"]

[Q] Query (compound): COC(=O)c1ccc(/C=C2\Oc3ccccc3C2=O)cc1 ; field requested: TGI
[A] > 100 µM

---

Assignment: determine reported GI50 for the given compounds.
- Tested on: LOX IMVI melanoma
- method: NCI tumour cell line growth inhibition, 48 h

Solved cases (4 shown):
[
  {
    "smiles notation": "CC[C@H](Nc1ncnc2nc[nH]c12)c1nc2cccc(F)c2c(=O)n1-c1ccccc1",
    "result": "28000 nM"
  },
  {
    "smiles notation": "COc1ccc(-c2cs/c(=N\\N=C\\c3ccc(O)cc3O)n2/N=C/c2ccc(O)cc2O)cc1",
    "result": "1760 nM"
  },
  {
    "smiles notation": "O=[N+]([O-])c1cc(Cl)c2[nH]c3c(Cl)cc([N+](=O)[O-])cc3c2c1",
    "result": "308 nM"
  },
  {
    "smiles notation": "O=C1/C(=C/c2cccc(Br)c2)COc2ccc(O)cc21",
    "result": "1700 nM"
  }
]

Please look at the following compound next.
[Q] Would you mind telling me what GI50 value was observed for COc1ccc2cc(/C=C/C(=O)c3ccc(Cl)cc3Cl)ccc2c1 ?
[A] 24100 nM

---

Answer each item with its documented TGI.
- Tested on: SW-620 colon
- method: NCI tumour cell line growth inhibition, 48 h

[
  {
    "molecule": "COc1ccc(C(c2c(O)c3ccccc3n(-c3ccccc3)c2=O)c2c(O)c3ccccc3n(-c3ccccc3)c2=O)cc1",
    "target entity": "SW-620 colon",
    "TGI": "> 100 µM"
  },
  {
    "molecule": "COc1ccc(/C=C/C(=O)/C=C/c2cc3ccccc3[nH]c2=O)cc1",
    "target entity": "SW-620 colon",
    "TGI": "4.56 µM"
  },
  {
    "molecule": "Cc1ccc(/C=N/n2c(-c3ccc(C)cc3)n[nH]c2=O)cc1",
    "target entity": "SW-620 colon",
    "TGI": "> 100 µM"
  },
  {
    "molecule": "O=C1CC(c2ccccc2)C2(C(=O)NC(=S)NC2=O)C(c2ccccc2)C1 (stereo not given)",
    "target entity": "SW-620 colon",
    "TGI": "> 75 µM"
  },
  {
    "molecule": "O=C(O)C(O)C(O)C(=O)O (stereo not given)",
    "target entity": "SW-620 colon",
    "TGI": "> 100 µM"
  },
  {
    "molecule": "Cc1ccc2c(c1)C(=O)c1nc(C)ccc1C2=O",
    "target entity": "SW-620 colon",
    "TGI": "> 100 µM"
  }
]

Below are 8 molecules. Give each one its TGI.
1. CC(Oc1ccc2c(-c3ccccc3)cc(=O)oc2c1)C(=O)O (stereo not given)
2. O=C1c2cc(Cl)ccc2NC(=NC2CCCC2)C2CSCN12 (stereo not given)
3. C=C1C(=O)OC2C/C(C)=C/CC/C(C)=C/CCC3(COC(C)=O)OC3CC12 (stereo not given)
4. CC1CCC2(NC1)OC1CC3C4CC=C5CC(O)CCC5(C)C4CCC3(C)C1C2C (stereo not given)
5. Clc1ccc(C2=NN=C3C(c4ccccc4)=Nc4ccccc4N3C2)cc1
6. CC1=NC2=Nc3nc(C)cc[n+]3CN2C=C1
7. CCCCCCCCCCCCCCCCCC1=NC(C)(C)CN1CC(C)O (stereo not given)
8. CS(=O)(=O)c1nc(-c2cc3c(c(S(C)(=O)=O)n2)CCCC3)cc2c1CCCCC2

[A]
["> 100 µM", "> 100 µM", "5.09 µM", "> 100 µM", "> 100 µM", "> 100 µM", "4.78 µM", "> 100 µM"]

For the 5 molecules below, give their TGI values.
1. Cc1ccccc1NC(=O)c1cc(-c2ccc([N+](=O)[O-])cc2)nc(=S)[nH]1
2. CC1/C=C/[C@@]2(C)CCC(C(C)(C)O)C2C(O)C[C@](C)(O)/C=C/C1 (stereo not given in full)
3. [N-]=[N+]=NC1OC(=O)C(Cl)=C1N=P(c1ccccc1)(c1ccccc1)c1ccccc1 (stereo not given)
4. CC(C)CCC[C@@H](C)[C@H]1CC[C@H]2[C@@H]3CC[C@H]4C[C@@H](CCC=C(c5cc(Cl)c(O)c(C(=O)O)c5)c5cc(Cl)c(O)c(C(=O)O)c5)CC[C@]4(C)[C@H]3CC[C@]12C
5. O=C1c2ccccc2-[n+]2ccc3c([nH]c4ccccc43)c21

[A]
["> 100 µM", "> 100 µM", "> 10 µM", "> 100 µM", "2.72 µM"]

[Q] Provide value of TGI for this record tested with SW-620 colon: COc1ccc(-c2cs/c(=N\N=C\c3ccc(O)cc3O)n2/N=C/c2ccc(O)cc2O)cc1
[A] 4.91 µM
